This collection of values is drawn from the supplement of paper PMC10567573.

B1: ATL3 (parent)
chain: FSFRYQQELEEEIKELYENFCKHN

- Variants of: B1
- Test Method Notes: protein stability index of a GFP-peptide fusion (GPS, HEK-293T) (PSI 1-6); higher = more stable;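 further: lentivirally expressed fusions sorted by FACS into six bins by GFP to DsRed ratio, PSI derived from sequencing read proportions per bin multiplied by bin number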
- Condition Label: c terminus: a fixed tail appended
Give met when the value for protein stability index is at least 2. Give not met when it is less.

Variant Name: K22T
Label: met

Variant Name: R4L
Label: met

Variant Name: Y17E
Label: met

Variant Name: Q7F
Label: not met

Variant Name: E8W
Label: met

Variant Name: N24G
Label: met

Variant Name: Y5C
Label: met

Variant Name: Q7D
Label: met

Variant Name: K22E
Label: met

Variant Name: N19W
Label: not met

Variant Name: L16D
Label: met

Variant Name: K22R
Label: met

Variant Name: E15W
Label: met

Variant Name: L16I
Label: met

Variant Name: N19M
Label: not met

Variant Name: F3T
Label: met

Variant Name: L9P
Label: met

Variant Name: R4D
Label: met

Variant Name: F1V
Label: met
